# credit: BigSolDB 2.1

condition_context: in water, 348.15 K
result_type: solubility (mole fraction)
Respond using a number only.

# input compound: `O=C(O)/C=C\C=C/C(=O)O` ; wanted: its solubility (mole fraction)
0.0153

---

condition_context: in isopropanol, 338.15 K
result_type: solubility (mole fraction)
Respond using a number only.

# input compound: `O=C(O)/C=C\C=C/C(=O)O` ; wanted: its solubility (mole fraction)
0.0274

---

condition_context: in ethanol, 338.15 K
result_type: solubility (mole fraction)
Respond using a number only.

# input molecule: `O=C(O)/C=C\C=C/C(=O)O` ; wanted: its solubility (mole fraction)
0.0595

---

condition_context: in water, 308.15 K
result_type: solubility (mole fraction)
Respond using a number only.

# input compound: `O=C(O)/C=C\C=C/C(=O)O` ; wanted: its solubility (mole fraction)
0.0006
